Tested on: adult brown dog ticks (Rhipicephalus sanguineus)
Experiment: Rhipicephalus sanguineus in-vitro contact test, adult brown dog ticks
Assay type: in vivo
Conditions: 5 μg/cm^2 (=500 g/ha), after 48 hours, read-out: efficacy (ticks dead or moribund)
measurement.label: pest or weed control at 5 µg/cm2, 5 µg/cm2

compound	tested.target	value.reported
C[C@H](NC(=O)c1cc(C(F)(F)F)cc(C(C)(C)C#N)c1)c1ncnn1-c1ncc(C#N)s1 [Example I-44]	adult brown dog ticks (Rhipicephalus sanguineus)	80%
Cc1nc([C@H](C)NC(=O)c2cc(OC(C)c3ccc(Cl)cc3)cc(C(F)(F)F)c2)n(-c2ccc(C#N)cn2)n1 (some centres unmarked) [Example I-15]	adult brown dog ticks (Rhipicephalus sanguineus)	80%
C[C@H](NC(=O)c1cc(C(F)(F)F)cc(C(C)(C)C#N)c1)c1ncnn1-c1cnc(C#N)cn1 [Example I-58]	adult brown dog ticks (Rhipicephalus sanguineus)	80%
C[C@H](NC(=O)c1cc(Cl)cc(OS(C)(=O)=O)c1)c1ncnn1-c1ccc(C#N)cn1 [Example I-46]	adult brown dog ticks (Rhipicephalus sanguineus)	100%
C[C@H](NC(=O)c1cc(Cl)cc(C(C)(C)C#N)c1)c1ncnn1-c1ccc(C#N)cn1 [Example I-33]	adult brown dog ticks (Rhipicephalus sanguineus)	100%
C[C@H](NC(=O)c1cc(C(F)(F)F)cc(C(C)(C)C#N)c1)c1ncnn1-c1ccc(C#N)cn1 [Example I-42]	adult brown dog ticks (Rhipicephalus sanguineus)	80%
C[C@H](NC(=O)c1cc(Br)cc(C(F)(F)C2CC2)c1)c1ncnn1-c1cnc(C#N)cn1 [Example I-59]	adult brown dog ticks (Rhipicephalus sanguineus)	100%

Next compound, please.
Item under review: C[C@H](NC(=O)c1cc(Cl)cc(C(=O)C2CC2)c1)c1ncnn1-c1ccc(C#N)cn1 [Example I-35] . Reported pest or weed control at 5 µg/cm2, 5 µg/cm2?
80%

Provenance of the data: patent US12653190B2
